- MEASUREMENT_NOTES: Cellular viability qHTS for adrenocortical cancer (ACC) cell line SW-13 (AID 1963989);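 also: cells grown in serum-free medium with ITS supplement; % is scaled to controls: 0 for no effect and ±100 for the full control effect; nearly all actives have a fitted effect of over 65% in size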
- CONDITION_PARAMETERS: SW-13 ACC cells viability, CellTiter-Glo, 48 h; hits give low values
Records with an inconclusive call do not appear. Activity calls are given as the source filed them. Calls follow the shape of the dose curve; as a rule, active = well fitted cell-killing curve with a large enough effect; inconclusive = small, poorly fitted or top-dose-only effect; inactive = flat fitted curve, though single readings scatter.
QUANTITY_NAME: activity (max response)

Field: example entries. Status: answers known.
| SUBSTANCE_SMILES | MEASURED_RESULT |
| --- | --- |
| CC(C)C[C@@H](N)C(=O)O | 8.35% (inactive) |
| C[C@H]1O[C@H](O[C@H]2[C@H](O)[C@@H](O)[C@@H](O[C@H]3[C@H](O)[C@@H](O)[C@H](O)O[C@@H]3CO)O[C@@H]2CO)[C@H](O)[C@@H](O)[C@@H]1N[C@H]1C=C(CO)[C@@H](O)[C@H](O)[C@H]1O | -2.85% (inactive) |

Lab note: next molecule to report on.
Lookup: Value lookup for activity (max response); key = OC[C@@H](O)[C@@H](O)[C@H](O)[C@H](O)CO
Found: -5.63% (inactive)
